Test: Initial drug concentration in Sprague-Dawley rat at 1 mg/kg, iv administered as single dose and measured after 48 hrs by HPLC-MS/MS analysis
Assay type: ADME, organism-based
Conditions: in vivo
PARAMETER: C0 at 48 h (ng/mL)

Cc1c(COc2cc(OCc3cccc(C#N)c3)c(CN3CCCCC3C(=O)NCCNC(=O)CCCC[C@@H]3SC[C@@H]4NC(=O)N[C@@H]43)cc2Cl)cccc1-c1ccccc1 (some centres not stated) | 257
Cc1c(COc2cc(OCc3cccc(C#N)c3)c(CN3CCCCC3C(=O)NCCN)cc2Cl)cccc1-c1ccccc1 (configuration not stated) | 2630

###

Assay: Drug concentration in tumor of C57BL/6 mouse implanted with mouse B16-F10 cells at 50 mg/kg, ip measured after 0.5 hrs by UPLC-MS/MS analysis
Format: ADME, organism-based, Neoplasm
Conditions: read-out: Ct
PARAMETER: concentration at 0.5 h (ng/mL)

Cc1c(COc2cc(OCc3cccc(C#N)c3)c(CN3CCCCC3C(=O)NCCNC(=O)CCCC[C@@H]3SC[C@@H]4NC(=O)N[C@@H]43)cc2Cl)cccc1-c1ccccc1 (stereo partly specified) | 15.5

###

Test: Half-life in Sprague-Dawley rat at 1 mg/kg, iv administered as single dose and measured after 48 hrs by HPLC-MS/MS analysis
Format: ADME, organism-based
Conditions: in vivo
# key: entry, value: half-life
PARAMETER: half-life

Cc1c(COc2cc(OCc3cccc(C#N)c3)c(CN3CCCCC3C(=O)NCCNC(=O)CCCC[C@@H]3SC[C@@H]4NC(=O)N[C@@H]43)cc2Cl)cccc1-c1ccccc1 (some centres not stated) | 18.1 h
Cc1c(COc2cc(OCc3cccc(C#N)c3)c(CN3CCCCC3C(=O)NCCN)cc2Cl)cccc1-c1ccccc1 (configuration not stated) | 6.4 h

###

Assay: MRT (0 to t) in C57BL/6 mouse at 50 mg/kg, ip measured after 4 hrs by HPLC-MS/MS analysis
Format: ADME, organism-based
Settings: in vivo
PARAMETER: MRT last at 4 h

Cc1c(COc2cc(OCc3cccc(C#N)c3)c(CN3CCCCC3C(=O)NCCNC(=O)CCCC[C@@H]3SC[C@@H]4NC(=O)N[C@@H]43)cc2Cl)cccc1-c1ccccc1 (stereo partly specified) | 2.24 h

###

Assay: MRT (0 to infinity) in C57BL/6 mouse at 50 mg/kg, ip measured after 4 hrs by HPLC-MS/MS analysis
Assay type: ADME, organism-based
Settings: in vivo
PARAMETER: MRT inf (h)

Cc1c(COc2cc(OCc3cccc(C#N)c3)c(CN3CCCCC3C(=O)NCCNC(=O)CCCC[C@@H]3SC[C@@H]4NC(=O)N[C@@H]43)cc2Cl)cccc1-c1ccccc1 (stereo partly specified) | 9.84

###

Assay: Drug concentration in heart of C57BL/6 mouse implanted with mouse B16-F10 cells at 50 mg/kg, ip measured after 0.5 hrs by UPLC-MS/MS analysis
Format: ADME, organism-based
Conditions: read-out: Ct
PARAMETER: concentration at 0.5 h (ng/mL)

Cc1c(COc2cc(OCc3cccc(C#N)c3)c(CN3CCCCC3C(=O)NCCNC(=O)CCCC[C@@H]3SC[C@@H]4NC(=O)N[C@@H]43)cc2Cl)cccc1-c1ccccc1 (stereo partly specified) | 4.7

###

Molecular target: Programmed cell death protein 1/Programmed cell death 1 ligand 1 (Homo sapiens) (UniProt Q15116+Q9NZQ7)
Assay: Inhibition of GST-tagged PD-1 (unknown origin)/His-tagged PD-L1 (unknown origin) interaction at 100 nM by HTRF binding assay relative to control
Format: protein-complex assay
PARAMETER: inhibition (%)

Cc1c(COc2cc(OCc3cccc(C#N)c3)c(CNC(C)(C)C(=O)NC3CCN(C(=O)CCCC[C@H]4SC[C@H]5NC(=O)N[C@H]54)CC3)cc2Cl)cccc1-c1ccc2c(c1)OCCO2 | 50.1
Cc1c(COc2cc(OCc3cccc(C#N)c3)c(CN3CCCCC3C(=O)NCCNC(=O)CCCC[C@@H]3SC[C@@H]4NC(=O)N[C@@H]43)cc2Cl)cccc1-c1ccccc1 (stereo not given in full) | 104
Cc1c(COc2cc(OCc3cccc(C#N)c3)c(CN3CCCCC3C(=O)NCCCNC(=O)CCCC[C@@H]3SC[C@@H]4NC(=O)N[C@@H]43)cc2Cl)cccc1-c1ccccc1 (stereo not given in full) | 104
Cc1c(COc2cc(OCc3cccc(C#N)c3)c(CN3CCCCC3C(=O)N3CCN(C(=O)CCCC[C@@H]4SC[C@@H]5NC(=O)N[C@@H]54)CC3)cc2Cl)cccc1-c1ccccc1 (stereo not given in full) | 102
Cc1c(COc2cc(OCc3cccc(C#N)c3)c(CN3CCCCC3C(=O)N3CCC(NC(=O)CCCC[C@H]4SC[C@H]5NC(=O)N[C@H]54)CC3)cc2Cl)cccc1-c1ccc2c(c1)OCCO2 (stereo not given in full) | 90.6
